Biological target: T1, recombinant human cardiac troponin T (human, UniProt P45379 2-298)
T1 construct: In the ECL assay the cTnT came from the Troponin T hs CalSet calibrator; also called cTnT; TnT
Test: SPR (Biacore T200, 37 C), Fab captured, cTnT analyte
Consider the following binders and their measured t/2-diss readings.
Give me the value, and tack the unit on after it.

Would you please look over these solved cases?
Sample anti-cTnT Fab mutant 16 (Y34I, V101Y + Y104F) (Fab, V domains shown, also called combination 16) VH: EVQLQQSGPELVKPGASVKMSCKASGYTFTDYIMKWVKQSHGKSLEWIGDINPNNGETFYNQKFKDKATLTVDKSSSTAYMQLNSLTSEDSAVYYCATRYFDFWGQGTTLTVSS VL: DIVLTQSPASLAVSLGQRATISCKASQSVDYDGTSYMNWFQQKAGQPPKRLIYAASNLESGIPARFSGRGSGTDFALNIHPVEEEDAATYYCQQSNEDPYTFGGGTKLEIK — what was its t/2-diss? 2 min

Form field: reported t/2-diss of anti-cTnT Fab mutant 9 (Y34I) (Fab, V domains shown, also called combination 9) VH: EVQLQQSGPELVKPGASVKMSCKASGYTFTDYIMKWVKQSHGKSLEWIGDINPNNGETFYNQKFKDKATLTVDKSSSTAYMQLNSLTSEDSAVYYCATRVFDYWGQGTTLTVSS VL: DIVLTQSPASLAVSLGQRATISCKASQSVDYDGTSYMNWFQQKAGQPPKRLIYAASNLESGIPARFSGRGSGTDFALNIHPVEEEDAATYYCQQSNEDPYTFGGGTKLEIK 5 min

Can you look up the measured t/2-diss of anti-cTnT Fab mutant 2 (Y34F, F60W) (Fab, V domains shown, also called combination 2) VH: EVQLQQSGPELVKPGASVKMSCKASGYTFTDYFMKWVKQSHGKSLEWIGDINPNNGETWYNQKFKDKATLTVDKSSSTAYMQLNSLTSEDSAVYYCATRVFDYWGQGTTLTVSS VL: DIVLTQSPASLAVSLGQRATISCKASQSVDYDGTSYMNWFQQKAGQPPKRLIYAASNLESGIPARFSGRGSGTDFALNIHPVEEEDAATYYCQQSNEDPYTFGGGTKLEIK for me? 11 min

Param item = anti-cTnT Fab mutant 4 (Y34F, F60W, Y104F) (Fab, V domains shown, also called combination 4) VH: EVQLQQSGPELVKPGASVKMSCKASGYTFTDYFMKWVKQSHGKSLEWIGDINPNNGETWYNQKFKDKATLTVDKSSSTAYMQLNSLTSEDSAVYYCATRVFDFWGQGTTLTVSS VL: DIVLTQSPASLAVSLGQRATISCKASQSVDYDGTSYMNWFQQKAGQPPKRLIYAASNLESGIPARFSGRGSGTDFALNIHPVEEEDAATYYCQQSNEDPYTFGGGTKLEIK ; retrieve measured t/2-diss. 16 min

New cases:
What value of measured t/2-diss is listed for anti-cTnT Fab mutant 17 (F60W) (Fab, V domains shown, also called combination 17) VH: EVQLQQSGPELVKPGASVKMSCKASGYTFTDYYMKWVKQSHGKSLEWIGDINPNNGETWYNQKFKDKATLTVDKSSSTAYMQLNSLTSEDSAVYYCATRVFDYWGQGTTLTVSS VL: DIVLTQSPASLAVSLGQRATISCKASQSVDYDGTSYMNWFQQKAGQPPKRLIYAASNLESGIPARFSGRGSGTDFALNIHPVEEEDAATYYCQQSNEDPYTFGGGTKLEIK ? 7 min
